The entries below come with measured % Activation values attached.
Target: ΔF508-CFTR (Homo sapiens, UniProt P13569, DEL508-508)
Construct: host or cells: CFBE41o-, doxycycline-inducible
Sequence (P13569 with tags, fused parts or gaps DEL508-508): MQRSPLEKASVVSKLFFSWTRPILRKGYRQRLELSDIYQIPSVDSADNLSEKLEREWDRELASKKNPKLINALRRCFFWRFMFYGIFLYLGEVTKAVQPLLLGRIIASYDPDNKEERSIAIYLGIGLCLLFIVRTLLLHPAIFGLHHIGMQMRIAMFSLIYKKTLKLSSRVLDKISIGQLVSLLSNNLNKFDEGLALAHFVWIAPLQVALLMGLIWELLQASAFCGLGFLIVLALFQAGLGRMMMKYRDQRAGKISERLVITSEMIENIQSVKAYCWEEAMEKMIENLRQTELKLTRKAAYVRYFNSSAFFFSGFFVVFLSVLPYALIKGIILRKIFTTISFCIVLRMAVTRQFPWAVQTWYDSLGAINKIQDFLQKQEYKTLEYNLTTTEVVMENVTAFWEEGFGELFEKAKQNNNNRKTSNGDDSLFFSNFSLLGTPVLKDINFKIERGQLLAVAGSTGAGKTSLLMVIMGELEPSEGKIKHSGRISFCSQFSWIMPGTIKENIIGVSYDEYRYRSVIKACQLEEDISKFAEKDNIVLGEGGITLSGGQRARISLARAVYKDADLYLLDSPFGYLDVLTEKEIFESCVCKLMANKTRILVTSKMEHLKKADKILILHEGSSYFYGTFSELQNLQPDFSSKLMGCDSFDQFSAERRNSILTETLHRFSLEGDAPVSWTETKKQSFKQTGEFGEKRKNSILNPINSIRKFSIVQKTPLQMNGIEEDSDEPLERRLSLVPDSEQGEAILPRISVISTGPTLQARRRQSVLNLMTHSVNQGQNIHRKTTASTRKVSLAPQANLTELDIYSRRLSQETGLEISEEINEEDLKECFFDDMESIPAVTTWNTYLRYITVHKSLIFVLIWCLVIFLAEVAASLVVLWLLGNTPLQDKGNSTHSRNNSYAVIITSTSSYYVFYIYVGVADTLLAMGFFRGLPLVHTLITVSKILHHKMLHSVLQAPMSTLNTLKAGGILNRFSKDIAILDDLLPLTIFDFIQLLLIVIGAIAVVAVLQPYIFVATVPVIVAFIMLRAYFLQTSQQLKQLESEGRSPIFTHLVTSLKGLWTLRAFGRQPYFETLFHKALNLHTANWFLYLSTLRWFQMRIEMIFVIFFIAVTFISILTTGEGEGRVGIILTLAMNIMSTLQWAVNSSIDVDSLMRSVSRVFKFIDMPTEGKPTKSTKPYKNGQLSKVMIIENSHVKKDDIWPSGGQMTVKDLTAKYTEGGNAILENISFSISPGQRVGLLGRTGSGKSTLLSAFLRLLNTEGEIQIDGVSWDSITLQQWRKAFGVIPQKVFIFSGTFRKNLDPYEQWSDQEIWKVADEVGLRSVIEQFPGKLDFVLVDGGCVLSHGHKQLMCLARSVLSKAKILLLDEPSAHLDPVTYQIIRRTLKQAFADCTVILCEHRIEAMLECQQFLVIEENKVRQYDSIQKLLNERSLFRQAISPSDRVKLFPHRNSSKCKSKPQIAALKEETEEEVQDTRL
Experiment: CFTR cell surface levels using HRP-tagged ΔF508-CFTR expressing CFBE cells, intrinsic corrector capacity
Type: cell-based
Set-up: concentration or dose not given beside the values
Conditions: HRP-tagged ΔF508-CFTR expressing CFBE41o- cells; compound alone (intrinsic corrector capacity); 20 hours at 33° C.
Give just the numeric value; % need not be written.

### Prompt Returns the measured % Activation for the input compound. Input: CN(C)S(=O)(=O)NC(=O)c1cc(N2CCC(N3CCOC(C)(C)C3)CC2)c2c(C3CCC3)nn(-c3ccc(F)cc3)c2n1 [Compound 573]
### Response 270.53

### Prompt For COCCS(=O)(=O)NC(=O)c1cc(-c2ccc(N3CCOCC3)cc2)c2c(C)nn(C3CC3)c2n1 [Compound 235] , what is its reported % Activation?
### Response 102.76

### Prompt Consider the compound shown here: Cc1nn(-c2ccc(F)cc2F)c2nc(C(=O)NS(C)(=O)=O)cc(-c3ccc(N4CCOCC4)cc3)c12 [Compound 21] What is its recorded % Activation?
### Response 264.25

### Prompt What measured % Activation goes with CS(=O)(=O)NC(=O)c1cc(N2CCC(CCN3CCOCC3)CC2)c2c(C3CCC3)nn(-c3ccc(F)cc3)c2n1 [Compound 431] ?
### Response 344.95

### Prompt Report % Activation for CS(=O)(=O)NC(=O)c1cc(N2CC3(CCOCC3)C2)c2c(C3CCC3)nn(-c3ccccc3)c2n1 [Compound 204] please.
### Response 117.6

### Prompt What value of % Activation has been recorded for this entry: COCC1CCN(c2cc(C(=O)NS(=O)(=O)CC3COCCO3)nc3c2c(C2CCC2)nn3-c2ccccc2)CC1 (stereo not shown) [Compound 417]
### Response 307.45

### Prompt Param item = COCCS(=O)(=O)NC(=O)c1cc(-c2ccc(N3CCC(C#N)CC3)nc2)c2c(n1)n(-c1ccccc1)nc2[C@H]1C[C@H](C)C1 [Compound 276] ; retrieve measured % Activation.
### Response 356.7

----------
Target: ΔF508-CFTR (Homo sapiens, UniProt P13569, DEL508-508)
Construct: host or cells: CFBE41o-, doxycycline-inducible
Test: CFTR cell surface levels using HRP-tagged ΔF508-CFTR expressing CFBE cells, in the presence of a co-corrector
Type: cell-based
Conditions: HRP-tagged ΔF508-CFTR CFBE cells, in the presence of 3 μM co-corrector
assay metric: % Activation
Kindly format the answer as number then unit.

Example entries and their recorded answers appear below.
molecule	assay metric	reported measurement
CN(C)S(=O)(=O)NC(=O)c1cc(N2CCC(N3CCC(O)CC3)CC2)c2c(C3CCC3)nn(-c3ccc(F)cc3)c2n1	% Activation	395.8%
CC(C)N1CCN(C2CCN(c3cc(C(=O)NS(=O)(=O)N(C)C)nc4c3c(C3CCC3)nn4-c3ccc(F)cc3)CC2)CC1	% Activation	500.01%
CNS(=O)(=O)NC(=O)c1cc(N2CCC(N3CCN(C4CC4)CC3)CC2)c2c(C3CCC3)nn(-c3ccccc3)c2n1	% Activation	571.35%
COCC1CCN(c2cc(C(=O)NS(C)(=O)=O)nc3c2c(C(C)C)nn3-c2cccc(N(C)C)c2)CC1	% Activation	674.7%
CC(C)Oc1nn(C2CCCCC2)c2nc(C(=O)NS(C)(=O)=O)cc(-c3ccc(C(=O)N4CCC(N(C)C)CC4)cc3)c12	% Activation	344.9%
CC(C)c1nn(-c2ccc(F)cc2)c2nc(C(=O)NS(C)(=O)=O)cc(OCC3CCOCC3)c12	% Activation	348.7%

### Prompt Could you tell me which % Activation is on file for "CS(=O)(=O)NC(=O)c1cc(N2CCC3(CCCCC3)CC2)c2c(C3CCC3)nn(-c3ccccc3)c2n1" ?
### Response 247.3%

### Prompt Data request, read-out % Activation, for "CC1(C)CC(c2nn(-c3ccccc3)c3nc(C(=O)NS(C)(=O)=O)cc(-c4ccc(N5CCC(C#N)CC5)nc4)c23)C1"
### Response 387.1%

### Prompt Given the molecule "CS(=O)(=O)NC(=O)c1cc(C2CCN(CCC(F)(F)F)CC2)c2c(C3CCC3)nn(-c3ccc(F)cc3)c2n1" , what is its reported % Activation?
### Response 344.65%

// data source = patent US10259810B2
